Values were extracted from patent US20040034076A1.

pKi: −log10 of the molar value.
The compounds below have reported pKi for human ETA receptor (Homo sapiens, UniProt P25101).
measurement name: pKi

Examples with answers:
1. COc1ccc(OC(=O)NC(c2ccccc2)(c2ccccc2)C(Oc2nc(OC)cc(OC)n2)C(=O)O)cc1 (stereo not shown); 6.92
2. Cc1cc(C)nc(OC(C(=O)O)C(NC(=O)N(C)C2CCCCC2)(c2ccccc2)c2ccccc2)n1 (stereo not shown); 7.72
3. COc1cc(OC)nc(OC(C(=O)O)C(NC(=O)Oc2ccc(C)c(C)c2)(c2ccccc2)c2ccccc2)n1 (stereo not shown); 6.98

A = Cc1cc(C)nc(OC(C(=O)O)C(NC(=O)N2CCOCC2)(c2ccccc2)c2ccccc2)n1 (stereo not shown)
B = COc1cc(OC)nc(OC(C(=O)O)C(NC(=O)OCc2cc(OC)c(OC)cc2[N+](=O)[O-])(c2ccccc2)c2ccccc2)n1 (stereo not shown)
C = CCN(CC)C(=O)NC(c1ccccc1)(c1ccccc1)C(Oc1nc(OC)cc(OC)n1)C(=O)O (stereo not shown)
D = Cc1cc(C)nc(OC(C(=O)O)C(NC(=O)N2CCCCC2)(c2ccccc2)c2ccccc2)n1 (stereo not shown)
Request: Order the items by recorded pKi; the first position goes to the largest value. // list labels; follow requested order
Response: B, D, A, C

====

- target of assay: human ETB receptor (Homo sapiens, UniProt P24530)
- Sequence (P24530 27-442): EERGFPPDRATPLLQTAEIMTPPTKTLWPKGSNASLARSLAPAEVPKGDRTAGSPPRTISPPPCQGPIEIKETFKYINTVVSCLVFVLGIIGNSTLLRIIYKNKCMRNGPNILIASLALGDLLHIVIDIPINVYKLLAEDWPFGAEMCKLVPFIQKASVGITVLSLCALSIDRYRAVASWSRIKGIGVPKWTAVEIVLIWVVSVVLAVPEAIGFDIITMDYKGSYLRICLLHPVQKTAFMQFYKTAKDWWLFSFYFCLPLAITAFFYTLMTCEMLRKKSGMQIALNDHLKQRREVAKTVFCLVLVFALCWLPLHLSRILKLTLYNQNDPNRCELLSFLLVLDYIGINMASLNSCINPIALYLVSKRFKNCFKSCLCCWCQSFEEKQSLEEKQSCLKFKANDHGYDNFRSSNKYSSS
Measured Ki accompanies every entry in the list below.
Give your result in nM as a bare value.

Example entries begin here.
1) Cc1cc(C)nc(OC(C(=O)O)C(NC(=O)N2CCOCC2)(c2ccccc2)c2ccccc2)n1 (stereo not shown); 3450
2) COc1cc(OC)nc(OC(C(=O)O)C(NC(=O)Oc2ccc(C)c(C)c2)(c2ccccc2)c2ccccc2)n1 (stereo not shown); 730

Below: the item to evaluate.
COc1ccc(OC(=O)NC(c2ccccc2)(c2ccccc2)C(Oc2nc(OC)cc(OC)n2)C(=O)O)cc1 (stereo not shown) yielded Ki of 1930
